Reference source for all entries: ChEMBL document CHEMBL3397040

Readings of IC50 for the listed compounds
System: SW480
test summary: Anticancer activity against human SW480 cells after 48 hrs by MTT assay
Type: functional, cell-based
conditions: SW480, 48 h
# value in µM; strip the unit string

CCCC(=O)OC[C@H]1O[C@@H](O[C@@H]2c3cc4c(cc3[C@@H](c3cc(OC)c(OC)c(OC)c3)[C@H]3C(=O)OC[C@@H]32)OCO4)[C@H](OC(=O)CCC)[C@@H](OC(=O)CCC)[C@H]1OC(=O)CCC	26.5

As a next step, examine the compound that follows.
Short answer for "CCCC(=O)O[C@@H]1[C@@H](OC(=O)CCC)[C@H](C)O[C@@H](O[C@@H]2c3cc4c(cc3[C@@H](c3cc(OC)c(O)c(OC)c3)[C@H]3C(=O)OC[C@@H]32)OCO4)[C@@H]1OC(=O)CCC" : IC50 was 5.05
